Where do these numbers come from? They come from paper PMC8041433.

- SUBJECT_OF_TEST: recombinant human AChE (Homo sapiens)
- Sequence (P22303 32-614): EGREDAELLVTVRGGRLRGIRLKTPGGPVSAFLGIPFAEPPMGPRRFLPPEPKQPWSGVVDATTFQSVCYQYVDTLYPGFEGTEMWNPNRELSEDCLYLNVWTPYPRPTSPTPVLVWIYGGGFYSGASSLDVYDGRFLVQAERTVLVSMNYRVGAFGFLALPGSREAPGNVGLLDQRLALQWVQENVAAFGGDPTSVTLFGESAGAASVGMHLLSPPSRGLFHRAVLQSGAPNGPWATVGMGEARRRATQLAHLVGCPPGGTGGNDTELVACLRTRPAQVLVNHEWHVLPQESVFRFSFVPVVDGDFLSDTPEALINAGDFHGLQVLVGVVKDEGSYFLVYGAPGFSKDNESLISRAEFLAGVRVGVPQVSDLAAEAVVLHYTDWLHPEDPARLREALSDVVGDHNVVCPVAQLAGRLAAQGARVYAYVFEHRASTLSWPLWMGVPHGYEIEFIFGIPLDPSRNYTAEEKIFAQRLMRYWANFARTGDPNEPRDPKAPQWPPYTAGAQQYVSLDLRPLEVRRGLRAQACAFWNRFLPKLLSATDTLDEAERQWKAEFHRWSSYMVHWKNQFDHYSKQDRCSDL
- ASSAY_NAME: biochemical
- CONDITION: potency (IC50), Enzyme with microsomes
Counter-ions that a name gives are not always drawn.
Under this convention, Condition met denotes IC50 strictly below 7 µM and Condition not met denotes IC50 at or above 7 µM.

Reference set (5 entries):
COMPOUND: CN1CCCC(n2nc(Cc3ccc(Cl)cc3)c3ccccc3c2=O)CC1 (stereo not shown) [Azelastine (hydrochloride), reference compound]
CLASSIFICATION: Condition not met
--
COMPOUND: CN1C(=O)COc2c(C(=O)NC3CN4CCC3CC4)cc(Cl)cc21 (stereo not shown) [Azasetron hydrochloride, reference compound]
CLASSIFICATION: Condition not met
--
COMPOUND: Cc1nc2n(c(=O)c1CCN1CCC(C(=O)c3ccc(F)cc3)CC1)CCS2 [Setoperone, reference compound]
CLASSIFICATION: Condition not met
--
COMPOUND: CNC(=O)ON=C(CSC)C(C)(C)C
CLASSIFICATION: Condition met
--
COMPOUND: CCOP(=O)(Sc1ccccc1)Sc1ccccc1
CLASSIFICATION: Condition not met

Is IC50 strictly under 7 µM for the entry CCN(CC)CCOc1ccc2c(c1)C(=O)c1cc(OCCN(CC)CC)ccc1-2 [Tilorone, reference compound] ?
Condition met

Is IC50 strictly under 7 µM for the entry CCOP(=S)(OCC)Oc1nc(Cl)c(Cl)cc1Cl [Chlorpyrifos, reference compound] ?
Condition met

Is IC50 strictly under 7 µM for the entry CNC(=O)Oc1cc(C)cc(C(C)C)c1 ?
Condition met

Is IC50 strictly under 7 µM for the entry CCOC(=O)C(SP(=S)(OC)OC)c1ccccc1 (stereo not shown) [Phenthoate] ?
Condition not met

Is IC50 strictly under 7 µM for the entry CCOC(=O)c1ccc(NC(=O)CN2CCCCC2)cc1 [Sulcaine, reference compound] ?
Condition not met

Is IC50 strictly under 7 µM for the entry CNC(=O)O/N=C(\SC)C(=O)N(C)C ?
Condition met

Is IC50 strictly under 7 µM for the entry CCOP(=S)(OCC)Oc1cnc2ccccc2n1 ?
Condition met

Is IC50 strictly under 7 µM for the entry CNC(=O)Oc1ccc(N(C)C)c(C)c1 ?
Condition not met

Is IC50 strictly under 7 µM for the entry CCOP(=S)(OCC)Oc1ccc2c(C)c(Cl)c(=O)oc2c1 ?
Condition met

Is IC50 strictly under 7 µM for the entry CNC(=C[N+](=O)[O-])NCCSCc1csc(CN(C)C)n1 [Nizatidine, reference compound] ?
Condition not met

Is IC50 strictly under 7 µM for the entry CCCCSP(=O)(SCCCC)SCCCC ?
Condition met

Is IC50 strictly under 7 µM for the entry CNC(=O)Oc1ccccc1C(C)C ?
Condition not met

Is IC50 strictly under 7 µM for the entry CNC(=O)O/N=C/C(C)(C)[S+](C)[O-] (stereo not shown) [Aldicarb sulfoxide] ?
Condition met

Is IC50 strictly under 7 µM for the entry CNC(=O)Oc1cccc2c1OC(C)(C)C2 ?
Condition met
